Molecular target: Serine protease 1 (Bos taurus, UniProt P00760)
Sequence (P00760 whole entry): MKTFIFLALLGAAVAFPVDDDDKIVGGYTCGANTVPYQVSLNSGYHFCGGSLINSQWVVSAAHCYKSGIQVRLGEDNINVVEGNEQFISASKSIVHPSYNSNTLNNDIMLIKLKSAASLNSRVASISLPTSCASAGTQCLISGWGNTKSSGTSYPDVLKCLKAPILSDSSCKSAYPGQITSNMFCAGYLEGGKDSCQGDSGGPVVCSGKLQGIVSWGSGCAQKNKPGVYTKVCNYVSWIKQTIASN
Test: Binding affinity against bovine trypsin
One threshold, 4 nM, splits the recorded Ki values: lower ones are label 1, equal or higher ones are label 0.

>  <compound>
N=C(N)NCCCC(NC(=O)[C@@H]1CCCN1C(=O)[C@@H](CC1CCCCC1)NCC(=O)O)C(=O)c1nc2ccccc2s1 (stereo not given in full)

>  <category_label>
label 0

$$$$
>  <compound>
CN[C@H](Cc1ccccc1)C(=O)N1CCC[C@H]1C(=O)NC(CCCN=C(N)N)C(=O)c1nc2ccccc2n1C (stereo not given in full)

>  <category_label>
label 0

$$$$
>  <compound>
N=C(N)NCCC[C@H](NC(=O)[C@@H]1CCCN1C(=O)[C@H](CO)NS(=O)(=O)c1cccc2ccccc12)C(=O)c1nc2ccccc2s1

>  <category_label>
label 1

$$$$
>  <compound>
CN[C@H](Cc1ccccc1)C(=O)N1CCC[C@H]1C(=O)NC(CCCN=C(N)N)C(=O)c1nc2ccc3ccccc3c2s1 (stereo not given in full)

>  <category_label>
label 0

$$$$
>  <compound>
CN[C@H](Cc1ccccc1)C(=O)N1CCC[C@H]1C(=O)N[C@H](C(=O)c1nc2ccccc2s1)[C@H]1CC[C@H](CN)CC1

>  <category_label>
label 0

$$$$
>  <compound>
CC(=O)N[C@H](Cc1ccccc1)C(=O)N1CCC[C@H]1C(=O)NC(CCCN=C(N)N)C(=O)c1nc2ccccc2s1 (stereo not given in full)

>  <category_label>
label 1

$$$$
>  <compound>
Cc1cccc(C(C)(C)CN(CC(=O)N[C@@H](CCCN=C(N)N)C(=O)c2nc3ccccc3s2)C(=O)CCc2ccccc2)c1

>  <category_label>
label 0

$$$$
>  <compound>
NC(N)=NCCCC(NC(=O)[C@@H]1CCCN1C(=O)[C@H](N)Cc1ccccc1)C(=O)c1nc2ccccc2s1 (stereo not given in full)

>  <category_label>
label 1

$$$$
>  <compound>
CN[C@H](Cc1ccccc1)C(=O)N1CCC[C@H]1C(=O)N[C@@H](CCCN=C(N)N)C(O)c1nc2ccccc2s1 (stereo in doubt; form 1)

>  <category_label>
label 0

$$$$
>  <compound>
CN[C@H](Cc1ccccc1)C(=O)N1CCC[C@H]1C(=O)N[C@@H](Cc1cccc(C(=N)N)c1)C(=O)c1nc2ccccc2s1

>  <category_label>
label 1

$$$$
>  <compound>
N=C(N)NCCCC(NC(=O)[C@@H]1CCCN1C(=O)C(O)C1c2ccccc2-c2ccccc21)C(=O)c1nc2ccccc2s1 (stereo not given in full)

>  <category_label>
label 1

$$$$
>  <compound>
CN[C@H](Cc1ccccc1)C(=O)N1CCC[C@H]1C(=O)NC(CCCN=C(N)N)C(=O)c1nc(C(=O)O)cs1 (stereo not given in full)

>  <category_label>
label 0

$$$$
>  <compound>
NC(N)=NCCCC(NC(=O)[C@@H]1CCCN1)C(=O)c1nc2ccccc2s1 (stereo not given in full)

>  <category_label>
label 0

$$$$
